System: SK-MEL-2 melanoma
Experiment: NCI-60 one-dose screen, 48 h (100 = growth as untreated, 0 = no growth, -100 = all killed)
Conditions: 10 µM unless noted
Compounds without any hit were thinned out: in the full panel of roughly 83,000, 20% have a hit.
Rule: growth below 30% gives met, anything at or above gives not met.

COc1cccc2cc(-c3cc4ccccc4[nH]3)/c(=N\NC(=O)c3ccc(Cl)cc3)oc12
not met

Report whether reported growth is lower than 30% (strictly) for CCc1cccc2c3c(sc12)C(c1ccc(Cl)cc1)C(C#N)=C(/N=C/c1ccc(Cl)cc1)O3 (stereo unspecified)
not met

* * *

Recorded measurements of growth, one per entry
System: HCT-116 colon
Experiment: NCI-60 one-dose screen, 48 h (100 = growth as untreated, 0 = no growth, -100 = all killed)
Settings: 10 µM unless noted
Compounds without any hit were thinned out: in the full panel of roughly 83,000, 20% have a hit.
Report only the number, with the unit % understood.

Solved entries (count: 8):
NC(N)=Nc1ccc(Oc2cccc(Nc3ccc(Br)c(C(F)(F)F)c3)c2)cc1
-25
c1n[nH]cc1-c1nc2ccc3[nH]ncc3c2c2c1CCCC2
-3.08
CCCCCc1ccc(S(=O)(=O)Nc2cc(-c3csc(NC(=O)CN4CCN(C)CC4)n3)ccc2N2CCN(C)CC2)cc1
-70.9
N#Cc1c(-c2cccs2)cc(-c2cnccn2)nc1SCC(=O)c1ccc(F)cc1
96.6
CCOC(=O)C(=O)/C(=C\c1ccc(Cl)cc1)C(=O)N1C(=S)NC(=O)C1CC(C)C (configuration not stated)
99.3
Nc1nc(N)c2c(n1)NC(c1ccc(C(F)(F)F)cc1)CC(c1ccc(Nc3nc(NCCO)nc(N4CCOCC4)n3)cc1)=N2 (configuration not stated)
35.8
Oc1ccc(CSc2nnc(-c3ccc(Cl)cc3)n2-c2ccccc2)c2cccnc12
13.3
O=C(Nc1cccc(C(F)(F)F)c1)c1cc(-c2ccc(F)cc2F)ccc1O
3.8

Enter measured growth, system HCT-116 colon, for the compound shown: C=C(C=O)[C@@H]1CC[C@]2(C)[C@H](CC=C3[C@H]4[C@@H](C)[C@H](C)CC[C@]4(C(=O)OC)CC[C@]32C)[C@@]1(C)CCC#N
-57.8

Send back HCT-116 colon growth of N=c1c2cc(-c3ccccc3)oc2ncn1/N=C/c1ccc(Br)cc1 only.
50.7

Provide the reported growth (system: HCT-116 colon) for NS(=O)(=O)c1ccc(Nc2nc(SCc3ccccc3)nc3ccccc23)cc1
53.2

Would you please give the reported growth of COc1ccccc1-n1cc(C#N)c(N)c1C(=O)c1ccc(Br)cc1 with HCT-116 colon?
58.8

* * *

Test system: SK-MEL-2 melanoma
Assay: NCI-60 one-dose screen, 48 h (100 = growth as untreated, 0 = no growth, -100 = all killed)
Conditions: 10 µM unless noted
This is part of a sample that, as a whole, favours compounds with a hit. Of some 83,000 tested, about 20% had one in any assay.
# maps each entry to its growth
State the answer as a number, implicitly in %.

// worked examples, growth included
O=C(CN1CCN(c2cc(=O)n(-c3ccccc3)c3ccccc23)CC1)Nc1nc(-c2ccc(Cl)cc2)cs1
75.6
Nc1nc(Nc2ccccc2SSc2ccccc2Nc2nc(N)nc(-c3cccc(Br)c3)n2)nc(-c2cccc(Br)c2)n1
109

API: the following record is the query input.
Tell me measured growth for CCOC(=O)c1c(N)c(C#N)cn1-c1cc(OC)c(OC)c(OC)c1 please.
129

* * *

Tested on: T-47D breast
Assay: NCI-60 one-dose screen, 48 h (100 = growth as untreated, 0 = no growth, -100 = all killed)
Settings: 10 µM unless noted
Compounds without any hit were thinned out: in the full panel of roughly 83,000, 20% have a hit.
Reported growth values for a set of compounds
Give the quantity in %, number only.

Observe how each entry below is paired with its result.
COc1cc2c(cc1OC)C(Sc1ccc(F)cc1)c1c(nc(N)c(C#N)c1N)O2 (centres undefined)
-28.1
COc1ccc(NC(=O)CSc2nnc(-c3ccc4nc(-c5ccc(OC)c(OC)c5)[nH]c4c3)o2)cc1OC
90.3
NS(=O)(=O)c1ccc(Nc2nc(N/N=C/c3ccc(Cl)cc3)nc(Nc3ccccc3)n2)cc1
44.8
CC1(C)CC[C@]2(CN)CC[C@]3(C)C(=CC[C@@H]4[C@@]5(C)CCCNC(C)(C)[C@@H]5CC[C@]43C)[C@H]2C1
78.3
C=C(C)[C@@H]1CC[C@]2(COC)CC[C@]3(C)[C@H](CC[C@@H]4[C@@]5(C)CCCNC(C)(C)[C@@H]5CC[C@]43C)[C@@H]12
54.1

Return growth for the following compound: CC(=O)c1cc(C(=O)c2ccc(Br)cc2)n2cc(C)cc(C)c12
78.8

Return growth for the following compound: Cc1ccc(-n2c(/C=C3\C(=O)Nc4ccccc43)ccc2CO)cc1
77.4

Provide only the value of recorded growth for CCOC(=O)c1c(Nc2ccccc2)nn2c(-c3ccccc3)ccnc12
91

Quote growth reported for O=S(=O)(NCCCNc1nccc(-c2[nH]c(-c3ccccc3)nc2-c2ccc(Cl)c(O)c2)n1)c1ccc(Br)cc1 please.
30

* * *

Test system: SNB-19 CNS
Assay: NCI-60 one-dose screen, 48 h
Settings: 10 µM unless noted
Compounds without any hit were thinned out: in the full panel of roughly 83,000, 20% have a hit. The source made the active and inactive calls. Rule for the calls: active = growth percent below 10; inactive = the rest.
Could you please pick one outcome from this set? 1 for active, 0 for inactive

Cc1ccc(-c2cc3nc(C(Cl)Cl)nc(-c4cccs4)n3n2)cc1
0
O=C(CCn1c[n+](CC(=O)c2ccc(-c3ccccc3)cc2)c2ccccc21)Nc1cccc2cccnc12
0

Query: recorded result category for Cc1ccc(-c2nnc(SCc3ccc(O)c4ncccc34)n2-c2ccccc2)cc1 in this test
1

* * *

Form field: growth (one value per entry).
Tested on: HT29 colon
Assay: NCI-60 one-dose screen, 48 h (100 = growth as untreated, 0 = no growth, -100 = all killed)
Settings: 10 µM unless noted
This is part of a sample that, as a whole, favours compounds with a hit. Of some 83,000 tested, about 20% had one in any assay.
Supply the numeric figure in %, leaving out any unit text.

// worked examples, growth included
O=C1/C(=C/C=C/c2ccco2)SC(=S)N1C1CCCCC1
85.3
Nc1ccccc1NC(=O)c1ccc(NC(=O)C/C=C/c2cccnc2)cn1
12.9
Nc1ncc(-c2ccc(NS(=O)(=O)c3ccc(Cl)c(Cl)c3)cc2)[nH]1
107

Please give the documented growth of COc1cc(/C=C2\C(=O)Nc3ccccc32)ccc1OCc1ccc(F)cc1
105

Tell us which growth value is on record for CCN1CCN(Cc2cn(-c3ccc(S(N)(=O)=O)cc3)nn2)CC1
102

Report growth for COc1c(N2CC3CCCNC3C2)c(F)cc2c(=O)c(C(=O)N/N=C/c3ccc(N(C)C)cc3)cn(C3CC3)c12 (stereo unspecified)
-12

Tell me its growth given CN1CCN(c2ccc(/C=N/n3cnc4oc(-c5ccccc5)cc4c3=N)cc2)CC1 as the entry.
66.2

Report measured growth; entry is CCOC(=O)c1c(NC(=O)c2ccccc2C(F)(F)F)sc2c1CCC(=O)C2
75.4

Determine its reported growth: Cc1ccc(-c2cc3nc(C(Cl)Cl)nc(-c4ccco4)n3n2)cc1
0.475

Quick one: give measured growth for NS(=O)(=O)c1ccc(Nc2nc(Nc3ccccc3)nc3nnc(SCC(=O)NC4CCCCC4)n23)cc1
113

Output measured growth for this item: CS(=O)(=O)Nc1cc(-c2ccc3ncc(C#N)c(NCc4cccc(F)c4)c3c2)cnc1Cl
9.57

Given the compound CC(c1ccccc1)N1CSc2nc3ncncc3n2C1 (stereo unspecified) , write its reported growth.
30.4

Let me know recorded growth for Cn1cc(-c2nc(N)nnc2-c2c[nH]c3ccccc23)c2cc(Br)ccc21 , thanks.
5.93

Give me measured growth, please, for this compound: Cc1cc(C)c(N2C(=O)CC(Nc3ccc(Cl)cc3Cl)C2=O)c(C)c1 (stereo unspecified)
107

Note down growth recorded for C/C(=N\O)[C@H]1C[C@]23CC[C@]4(C)[C@H](CC[C@@H]5[C@@]6(C)CC/C(=N/O)C(C)(C)[C@@H]6CC[C@]54C)[C@H]2[C@H](C)C1(C)OC3
113

Consider the compound CC(=O)Nc1cccc(Nc2nc(N[C@H](C)c3ccccc3)c3ccccc3n2)c1 . State its measured growth.
41.1

Tell us which growth value is on record for COc1cc(-c2nn(C(C)(C)C)cc2-c2ccnc(NCCCNS(=O)(=O)c3ccccc3)n2)ccc1Cl
70.3

Kindly indicate its recorded growth. Item: Cn1cc(-c2cc(N)n3nc(-c4cn(C)c5ccccc45)cc3n2)c2ccccc21
50.6

Supply growth value. Item: CCc1cccc2c3c(sc12)C(c1ccc(Cl)cc1)C(C#N)=C(/N=C/c1ccc(Cl)cc1)O3 (stereo unspecified)
7.88

Tell me measured growth for O=C(Nc1cccc(Cl)c1)Nc1nc2ccc([N+](=O)[O-])cc2o1 please.
14.3

Supply recorded growth for COc1cc(Cn2cc3c(c2)-c2onc(CN4CCOCC4)c2CC3)cc(OC)c1OC here.
104

For the compound COc1ccc(-c2nc(C(Cl)Cl)nc3cc(-c4ccccc4)nn23)cc1 , report growth.
-20.2

For the compound COc1c(N2CC3CCCNC3C2)c(F)cc2c(=O)c(C(=O)N/N=C/c3ccc(F)cc3)cn(C3CC3)c12 (stereo unspecified) , give its measured growth value.
45.9

Assign growth to the following record: CS(=O)(=O)c1ccc(-n2cc(/C=N/O)c(-c3ccccc3)n2)cc1
97.4

Report measured growth; entry is O=C(O)c1ccc(-n2cc(CNc3cc(F)c(F)c(F)c3)c(-c3cccc(F)c3)n2)cc1
106

Provide only the value of recorded growth for Cc1ccc(-n2cc(/C=C/C(=O)c3ccc(O)cc3)c(-c3ccc(S(C)(=O)=O)cc3)n2)cc1
28.6
